# Experimental Target: Proto-oncogene tyrosine-protein kinase Src (Homo sapiens)
# Experimental Protocol: Selectivity for Src protein tyrosine kinase over (KDR) kinase insert domain receptor
Endpoint: Selectivity
Just the number, please, no unit after it.

• Cc1ccc(Nc2ncc(-c3ccccc3)s2)nc1 = 570
• Cc1cccc(Nc2ncc(-c3ccccc3)s2)n1 = 760
• Cc1cccnc1Nc1ncc(-c2ccccc2)s1 = 1200

// Selectivity lookup, key: Brc1cccc(Nc2ncc(-c3ccccc3)s2)n1
840

// Selectivity lookup, key: Cc1ccnc(Nc2ncc(-c3ccccc3)s2)c1
190

// Selectivity lookup, key: N#Cc1cnc(Nc2ccccn2)s1
678

====

# Experimental Target: Vascular endothelial growth factor receptor 3 (Homo sapiens) (UniProt P35916)
# Sequence (P35916 whole entry, the tested form may be a part): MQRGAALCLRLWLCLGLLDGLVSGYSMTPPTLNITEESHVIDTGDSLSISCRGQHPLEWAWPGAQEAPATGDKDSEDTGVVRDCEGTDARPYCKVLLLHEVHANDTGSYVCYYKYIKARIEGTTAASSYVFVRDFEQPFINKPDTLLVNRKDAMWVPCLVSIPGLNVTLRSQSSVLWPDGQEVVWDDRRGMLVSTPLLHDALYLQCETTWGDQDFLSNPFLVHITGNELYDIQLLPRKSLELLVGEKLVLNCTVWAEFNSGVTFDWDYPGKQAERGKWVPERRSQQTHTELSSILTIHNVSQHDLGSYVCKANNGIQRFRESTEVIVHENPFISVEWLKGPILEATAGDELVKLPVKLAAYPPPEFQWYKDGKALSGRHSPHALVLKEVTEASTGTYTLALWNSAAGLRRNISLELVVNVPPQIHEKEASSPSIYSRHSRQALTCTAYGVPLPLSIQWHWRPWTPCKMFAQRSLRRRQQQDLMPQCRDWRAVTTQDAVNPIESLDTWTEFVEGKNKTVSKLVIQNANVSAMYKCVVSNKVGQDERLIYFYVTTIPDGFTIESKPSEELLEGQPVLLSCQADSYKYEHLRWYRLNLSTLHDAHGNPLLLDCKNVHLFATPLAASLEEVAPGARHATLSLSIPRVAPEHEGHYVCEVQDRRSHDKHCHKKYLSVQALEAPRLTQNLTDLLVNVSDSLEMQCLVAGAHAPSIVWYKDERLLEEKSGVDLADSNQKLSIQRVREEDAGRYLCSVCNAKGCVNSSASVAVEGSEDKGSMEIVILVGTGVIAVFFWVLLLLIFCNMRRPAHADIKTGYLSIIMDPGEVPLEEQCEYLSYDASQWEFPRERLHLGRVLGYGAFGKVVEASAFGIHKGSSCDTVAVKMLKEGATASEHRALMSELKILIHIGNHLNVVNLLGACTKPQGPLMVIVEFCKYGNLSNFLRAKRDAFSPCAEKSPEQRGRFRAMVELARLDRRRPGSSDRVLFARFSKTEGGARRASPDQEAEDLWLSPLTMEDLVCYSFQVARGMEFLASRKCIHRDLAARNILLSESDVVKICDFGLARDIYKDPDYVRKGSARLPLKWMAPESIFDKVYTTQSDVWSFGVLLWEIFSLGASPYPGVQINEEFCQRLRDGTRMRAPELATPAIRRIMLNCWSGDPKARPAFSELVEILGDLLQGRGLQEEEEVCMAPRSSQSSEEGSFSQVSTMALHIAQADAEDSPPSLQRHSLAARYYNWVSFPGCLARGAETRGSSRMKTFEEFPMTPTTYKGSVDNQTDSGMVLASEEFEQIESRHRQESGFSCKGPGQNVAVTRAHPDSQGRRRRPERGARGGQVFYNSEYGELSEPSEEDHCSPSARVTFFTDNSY
# Experimental Protocol: Selectivity for Vascular endothelial growth factor receptor 3 over (KDR) kinase insert domain receptor
Catalogue of molecules with associated Selectivity
Just the number, please, no unit after it.

- O=C(Nc1ncc(-c2ccccc2)s1)c1ccccc1: 1
- Cc1cccnc1Nc1ncc(-c2ccccc2)s1: 3
- Cc1cccc(Nc2ncc(-c3ccccc3)s2)n1: 3

// Selectivity lookup, key: Clc1ccc(Nc2ncc(-c3ccccc3)s2)nc1
1

// Selectivity lookup, key: N#Cc1cnc(Nc2ccccn2)s1
4

// Selectivity lookup, key: CCCCN(C)c1ccc(/N=N/c2ncc([N+](=O)[O-])s2)c(C)c1
1

// Selectivity lookup, key: Cc1ccnc(Nc2ncc(-c3ccccc3)s2)c1
2

// Selectivity lookup, key: Cc1ccc(Nc2ncc(-c3ccccc3)s2)nc1
1

// Selectivity lookup, key: Brc1cccc(Nc2ncc(-c3ccccc3)s2)n1
3

Entry source: ChEMBL document CHEMBL1146769
